- Test system: TOV-21G
- protocol: Cell viability assay (ATPlite)
- Format: cell-based
- conditionInfo: Homo sapiens, TOV21G; TOV-21G cell line, 72 hours incubation
- Method: Intracellular ATP content was used as an indirect readout of cell number using the ATPlite 1Step bioluminescence assay (Revvity, Groningen, the Netherlands). […] After 24 hours of incubation, the starting cell number was determined by adding ATPlite to each well of a control plate and recording luminescence on an Envision multimode reader (Revvity, Waltham, MA, USA) ([4]). […] After incubation for an additional 72 hours, the ATP content was measured in each well using ATPlite. […]
observable: pIC50
Keep in mind that pIC50 stands for -log10 of concentration in molar terms.

Supply pIC50 value. Item: O=C(c1ccc(Oc2ccccc2)cc1Cl)c1c[nH]c2ncnc(N[C@@H]3CC[C@@H](CO)OC3)c12 [nemtabrutinib] 5.42
